- Measurement Protocol: yeast display, Sf9 membrane polyspecificity reagent, FACS + sequencing; frameworks hold sequencing errors
Parameter: polyreactivity (PSR sort gate)

Solved entries (count: 4):
INSERT INTO measurements (sequence_content, reading) VALUES
  ('QVQLVESGGGLVQAGGSLRLSCAAYGSTFRRYGMGWYRQAPGKERELVAAISKGGTRTYYADSVKGRFTISRDNVKNTVYLQMNSLKPEDTAVYYCAAAGASSSTPQKEDYWGQGTQVTVSS', 'high polyreactivity'),
  ('QVQLVESGGGLVQAGGSLRLSCAASGSIFRRTTQGGYRQAPGKERELVAAITYRGGSTYYADSVKGRFTISRDNAKNTVYFQMHSLKPEDTAVYYCARYHWYYPVSKSDSWGQGTQVTVSS', 'high polyreactivity'),
  ('QVQHVESGGGLVQAGGSLRLSCDASGSIFRVYAMGWDRQAPGKERELVAAISRDGSTNYADSVKGRFTISRDNAKNTVYLQMNSLKPEDTAVYYCAAYRTYRGARMNYWGQGTQVTVSS', 'low polyreactivity'),
  ('QVQLVESGGGLVQAGGSLRLSCAASGSIFTSYAMGWYRQAPGKERELVAAISRSGARTYYADSVKGRFTISRDNAKNTVYLLMNCLKPEDTAVYYCAAVHWRTTGGYDYWGQGTQVTVSS', 'high polyreactivity');

# context switch: different sequence, same polyreactivity (PSR sort gate)
Just so you know, measured polyreactivity (PSR sort gate) for QVQLVESGGGLVQAGGSLRLSCAASGRTFSTYAMGWYRQAPGKERELVAAITTSGGNTYYADSVKGRFTISRDNAKNTVYLQMNSLKPEDTAVYYCNADYFPTYDYWGQGTQVTVSS came out at low polyreactivity

---

- Measurement Protocol: yeast display, Sf9 membrane polyspecificity reagent, FACS + sequencing; frameworks hold sequencing errors
Parameter: polyreactivity (PSR sort gate)

INSERT INTO measurements (sequence_content, reading) VALUES
  ('QVQLVESGGGLVQAGGSLRLSCDASGFIFYSYAMGWYRQAPGKERELVAGITSGGITSYADSVKGRFTISRDNAKNTVYLQMNSLKPEDTAVYYCAKDVRSYRISVYGVGYWGQGTQVTVSS', 'high polyreactivity'),
  ('QVQLVESGGGLVQAGGSLRLSCAASGSIFSWYAMGWYRQAPGKERELVAAISNAGRTYYADSVKGRFTISRDNAKNTVYLQMNSLKPEDTAVYYCAAAGPRQGNYGGYEYWGQGTQVTVSS', 'high polyreactivity'),
  ('QVQLVESGVGLVQAGGSLRLSCAASGFIFRKYTMGWYRQAPGKERELVATIDSSGGSTYYADSVKGRFTISRDNAKNTVYLQMNSLKPEDTAVYYCNADLRELSPWYWYSGEMDYWGQGTQVTVSS', 'low polyreactivity'),
  ('QVQLVESGGGLVQAGGSLRLSCDASGSTFRWYTMGWYRPAPGKEREVVATISRSGGSTYNADSVKGRFTISRDNAKNTVYLQMNSLKPEDTAVYYCNKLGVSTHSYKYYYWGQGTQVTVSS', 'high polyreactivity'),
  ('QVQLVESGGGVVQAGGSLRLSCAASGSTSGIYAMGWYRQAPGKERELVAAIDTYGGSTYADSVKGRFTISRDNAKNTVYLQMNSVKPEDTAVYYCAKPFSSNSWSHGYCGQGTQVTVSS', 'low polyreactivity'),
  ('QVHLVESGGGLVQAGGSLRLSCAASGSTFVYNTMGWYRQAHGKERELVASISSDGNTDYADSVKGRFTISRDNAKNTVYVQMNSLKPEDTAVYYCAARYYYDWRFVGYDYWGQGTQVTVSS', 'low polyreactivity'),
  ('QVQLVESGGGLVQAGGSLRLSCAASGSIFKYNDMGWYRQAPGKERELVAAISWRGGRTYYADSVKGRFTISRDNAKNTVYLQMNSLKPEDTAVYYCNVVLDNRRGTYSYYYWGQGTQVTVSS', 'high polyreactivity'),
  ('QVQLLESGGGLVQAGGSLRLSCASSGSIFFRNAMVWYRQAPGKEREYVAAITGSSVSTYYADSVKGRFTISRDNAKNTVYLQMNSLKPEDTAVYYCAVRKWIGYNPYDDWGQGTQVTVSS', 'high polyreactivity'),
  ('QVQLVESAGGLVQAGGSLRLSCAASGSIFILNAMGWYRQAPGKERELVAAISWSGGRTNYADSVKGRFTISRDNAKNTVYLHMNRLKPEDTAVYSCAARVTPYRGFYYWGQGTQVTVSS', 'high polyreactivity'),
  ('QVQLVESGGGLVQAGGSLRLSCAASGGIFARNVMGWYRQAPGKERELVAAISGSGGSTYYADSVKGRFTISRDNAKNTVYLQMNSLKPEDTAVYYCAARTPGVSVYKDGYWGQGTQVTVTS', 'low polyreactivity');

Just so you know, measured polyreactivity (PSR sort gate) for QVQLVESWAGLVQAGGSLRLSCAASGRTFAYNAMGGYRQAPGSERELVAAITWSGDSTYYADSVKGRFTISRDNAKKTVYLQMNSQKPEDTAVNYCAAGLVFHYYAPKSYYLGYDYWGQGTQVTVSS came out at low polyreactivity
